Test system: HOP-92 NSCLC
Test: NCI tumour cell line growth inhibition, 48 h; in the data active means GI50 below about 0.43 µM; inactive means the rest
Classes to choose from: active, inactive

-- ask Hi, do you know how COCCn1c2c([n+](Cc3cnccn3)c1C)C(=O)c1ccccc1C2=O came out in this test?
-- reply active

-- ask Hi, do you know how CCCCCCCCCCCCCCCCCC[S+](C)CC (configuration not stated) came out in this test?
-- reply inactive

-- ask Hi, do you know how CN(C)C1CN(C(=O)c2cc(-c3ccc4ncnc(N5CCc6cc(F)c(Cl)cc65)c4c3)cnc2N)C1 came out in this test?
-- reply active

-- ask Hi, do you know how COC(=O)c1c2c(c(C)[n+]([O-])c1C)C(=O)C(NCc1ccc(O)cc1)=CC2=O came out in this test?
-- reply inactive

-- ask Hi, do you know how O=C(/C=C/C=C/c1ccc2c(c1)OCO2)N/N=C\c1ccc(O)cc1O came out in this test?
-- reply inactive

-- ask Hi, do you know how CC[C@@H](C)/C=C(C)/C=C/C(=O)c1c(O)c(-c2ccc(O)cc2)cn(OC2CC(=O)CCC(C)OC(=O)CC2O)c1=O (some centres not stated) came out in this test?
-- reply inactive

-- ask Hi, do you know how C#CCNC(=O)CC[C@@H](C)[C@H]1CC[C@H]2[C@@H]3CC[C@@H]4CC(=O)CC[C@]4(C)[C@H]3CC[C@]12C came out in this test?
-- reply inactive

-- ask Hi, do you know how CCOc1ccc2c(c1)C(=O)c1c-2n(CCCN=[N+]=[N-])c(=O)c2cc([N+](=O)[O-])ccc12 came out in this test?
-- reply inactive

-- ask Hi, do you know how COc1ccc(/C=C\c2cc(OC)c(OC)c(OC)c2)c(NS(=O)(=O)c2ccc(F)cc2)c1O came out in this test?
-- reply active

-- ask Hi, do you know how Cn1c(=O)c(Oc2ccc(F)cc2F)cc2cnc(NCC(C)(C)O)nc21 came out in this test?
-- reply inactive

-- ask Hi, do you know how COCCCC(NC(=O)C(CC(C)C)NC(=O)OCc1ccc(OC)cc1)C(=O)OC (configuration not stated) came out in this test?
-- reply inactive

-- ask Hi, do you know how CC[C@@]1(O)C(=O)OCc2c1cc1n(c2=O)Cc2c-1nc1cc(F)c(C)c3c1c2[C@@H](NC(=O)CO)CC3 came out in this test?
-- reply active

-- ask Hi, do you know how CC(=O)ON=C1C=CC(=C(C#N)c2ccccc2)C=C1 came out in this test?
-- reply inactive

-- ask Hi, do you know how O=C(CCN1CCCN(c2cnc3ccccc3n2)CC1)c1csc2ccccc12 came out in this test?
-- reply inactive

-- ask Hi, do you know how C[C@]12CC[C@@H]3c4ccc(OC(=O)N(CCCl)CCCl)cc4CC[C@H]3[C@@H]1CC[C@@H]2OP(=O)(O)O came out in this test?
-- reply inactive

-- ask Hi, do you know how CCCCOC(=O)c1c(C)[nH]c(/C=C2\N=C(c3ccc[nH]3)C=C2OC)c1C came out in this test?
-- reply active

-- ask Hi, do you know how O=C1c2ccc3c4c(ccc(c24)C(=O)N1CCNCc1ccccc1)C(=O)N(CCNCc1ccccc1)C3=O came out in this test?
-- reply inactive
